- experimentalDetails: solvent given as SMILES
- testConditions: in ClC(Cl)Cl
Hi! Could you tag entries with absorption maximum below 400 nm as class 1, and those at or above as class 0? Much appreciated.

Q: Strictly below 400 nm: is that where absorption maximum of `CCN(CC)c1ccc2cc(-c3cn4ccccc4n3)c(=O)oc2c1` sits?
A: class 0

Q: Strictly below 400 nm: is that where absorption maximum of `COc1ccc(-c2ccc(-c3ccc(OC)cc3)c3nc(-c4ccccc4)c(-c4ccccc4)nc23)cc1` sits?
A: class 1

Q: Strictly below 400 nm: is that where absorption maximum of `CC(C)(C)c1ccc2c(c1)c1cc(C(C)(C)C)ccc1n2-c1ccc2oc3nc4oc5ccc(C(F)(F)F)cc5c4cc3c2c1` sits?
A: class 1

Q: Strictly below 400 nm: is that where absorption maximum of `CCCCCCN1C(=O)C(c2ccc(-n3c4ccccc4c4ccccc43)cc2)=C(c2ccc(-n3c4ccccc4c4ccccc43)cc2)C1=O` sits?
A: class 0

Q: Strictly below 400 nm: is that where absorption maximum of `Cc1ccc(/C2=c3\cc/c(o3)=C(\c3ccc(C)cc3)c3ccc([nH]3)-c3ccc4n3[B-](F)(F)[N+]3=C(C=CC3=C4c3ccco3)c3ccc2[nH]3)cc1` sits?
A: class 0

Q: Strictly below 400 nm: is that where absorption maximum of `CN(C)c1ccc(-c2ccc(-c3cc(-c4ccccc4)c(-c4ccccc4)c(-c4ccccc4)c3-c3ccccc3)nc2)cc1` sits?
A: class 1

Q: Strictly below 400 nm: is that where absorption maximum of `CC/C=C/C=C/C=C/C=C/CCCCCCCC(=O)O` sits?
A: class 1

Q: Strictly below 400 nm: is that where absorption maximum of `CCCCOc1ccc(-c2oc3cc4n(c3c2-c2ccc(OCCCC)cc2)[B-](F)(F)[N+]2=Cc3cc5oc(-c6ccc(OCCCC)cc6)c(-c6ccc(OCCCC)cc6)c5n3[B-](F)(F)[N+]2=C4)cc1` sits?
A: class 0

Q: Strictly below 400 nm: is that where absorption maximum of `CCCCCCCCC1(CCCCCCCC)c2cc(-c3ccc(C(=O)OC)cc3)ccc2-c2ccc(-c3ccc(C(=O)OC)cc3)cc21` sits?
A: class 1

Q: Strictly below 400 nm: is that where absorption maximum of `N#Cc1c2oc3ccccc3oc2c(C#N)c2oc3ccccc3oc12` sits?
A: class 0

Q: Strictly below 400 nm: is that where absorption maximum of `COc1ccc2c(C#N)cc3ccc4cc(C#N)c5ccc(OC)cc5c4c3c2c1` sits?
A: class 0

Q: Strictly below 400 nm: is that where absorption maximum of `CCO[B-]1(OCC)n2c(C)cc(C)c2C(c2ccc(I)cc2)=C2C(C)=CC(C)=[N+]21` sits?
A: class 0

Q: Strictly below 400 nm: is that where absorption maximum of `Fc1ccc(-c2nc3n(c2-c2ccncc2)CCS3)cc1` sits?
A: class 1

Q: Strictly below 400 nm: is that where absorption maximum of `F[B-]1(F)n2c(nc3c4ccccc4c4ccccc4c32)-c2cccc[n+]21` sits?
A: class 0

Q: Strictly below 400 nm: is that where absorption maximum of `CCCCCCCCC1(CCCCCCCC)c2cc3c(cc2-c2sc(-c4ccc(/C=C5\SC(=S)N(CC)C5=O)c5nsnc45)cc21)C(CCCCCCCC)(CCCCCCCC)c1cc(-c2ccc(/C=C4\SC(=S)N(CC)C4=O)c4nsnc24)sc1-3` sits?
A: class 0

Q: Strictly below 400 nm: is that where absorption maximum of `CCCCCCc1ccc(-c2ccc(-c3cc(-c4ccc(-c5ccc(CCCCCC)s5)s4)c4ccc5c(-c6ccc(-c7ccc(CCCCCC)s7)s6)cc(-c6ccc(-c7ccc(CCCCCC)s7)s6)c6ccc3c4c65)s2)s1` sits?
A: class 0

Q: Strictly below 400 nm: is that where absorption maximum of `COc1cc(N(c2ccccc2)c2ccccc2)ccc1C=C(C#N)C#N` sits?
A: class 0

Q: Strictly below 400 nm: is that where absorption maximum of `Cc1ccc(C2=C3C=CC(Cl)=[N+]3[B-](F)(F)n3c(Cl)ccc32)cc1` sits?
A: class 0

Q: Strictly below 400 nm: is that where absorption maximum of `CCC1=C(C)C(=O)n2c1cc1c(C)c(CCC(=O)OC)c(C)n1c2=O` sits?
A: class 0

Q: Strictly below 400 nm: is that where absorption maximum of `N#CC(C#N)=C(/C=C/c1ccc(N(c2ccccc2)c2ccccc2)cc1)c1ccc2c3c(cccc13)CC2` sits?
A: class 0

Q: Strictly below 400 nm: is that where absorption maximum of `C(#Cc1ccccc1)C(C#Cc1ccccc1)=Cc1c2ccccc2c(C=C(C#Cc2ccccc2)C#Cc2ccccc2)c2ccccc12` sits?
A: class 0

Q: Strictly below 400 nm: is that where absorption maximum of `CN(C)c1ccc(/C=C2\CC/C(=C\c3ccc(C#N)cc3)C2=O)cc1` sits?
A: class 0

Q: Strictly below 400 nm: is that where absorption maximum of COC1(OC)C2(Cl)c3nc4cc(-c5cccs5)ccc4nc3C1(Cl)C1C[C@H]3[C@@H](CC12)C1(Cl)c2nc4ccc(-c5cccs5)cc4nc2C3(Cl)C1(OC)OC (stereo partly drawn) sits?
A: class 1

Q: Strictly below 400 nm: is that where absorption maximum of `CCCCCCCCc1ccc(-c2ccc(-c3cc(-c4ccc(-c5ccc(CCCCCCCC)s5)c5nsnc45)c4ccc5c(-c6ccc(-c7ccc(CCCCCCCC)s7)c7nsnc67)cc(-c6ccc(-c7ccc(CCCCCCCC)s7)c7nsnc67)c6ccc3c4c65)c3nsnc23)s1` sits?
A: class 0

Q: Strictly below 400 nm: is that where absorption maximum of `COc1ccc2c3ccc(OC)cc3c3cc4c(C)cc(=O)oc4cc3c2c1` sits?
A: class 1

Q: Strictly below 400 nm: is that where absorption maximum of `N#Cc1cc2ccc(O)cc2oc1=N` sits?
A: class 1

Q: Strictly below 400 nm: is that where absorption maximum of `CN(C)c1ccc(C2=Cc3c4ccccc4c4ccccc4[n+]3[B-](F)(F)O2)cc1` sits?
A: class 0

Q: Strictly below 400 nm: is that where absorption maximum of CC1(C)c2ccccc2-c2ccc(N3c4ccc(-c5ccc(/C=C6\C(=O)c7ccc(C(=O)O)cc7C6=O)s5)cc4C4CCCC43)cc21 (stereo not drawn) sits?
A: class 0

Q: Strictly below 400 nm: is that where absorption maximum of `F[B-]1(F)OC(c2ccccc2)=Cc2cc(Cl)nc[n+]21` sits?
A: class 1
